Entries with reported pIC50 on Proto-oncogene tyrosine-protein kinase Src (Mus musculus, UniProt P05480)
Sequence (P05480 2-535 limits assumed): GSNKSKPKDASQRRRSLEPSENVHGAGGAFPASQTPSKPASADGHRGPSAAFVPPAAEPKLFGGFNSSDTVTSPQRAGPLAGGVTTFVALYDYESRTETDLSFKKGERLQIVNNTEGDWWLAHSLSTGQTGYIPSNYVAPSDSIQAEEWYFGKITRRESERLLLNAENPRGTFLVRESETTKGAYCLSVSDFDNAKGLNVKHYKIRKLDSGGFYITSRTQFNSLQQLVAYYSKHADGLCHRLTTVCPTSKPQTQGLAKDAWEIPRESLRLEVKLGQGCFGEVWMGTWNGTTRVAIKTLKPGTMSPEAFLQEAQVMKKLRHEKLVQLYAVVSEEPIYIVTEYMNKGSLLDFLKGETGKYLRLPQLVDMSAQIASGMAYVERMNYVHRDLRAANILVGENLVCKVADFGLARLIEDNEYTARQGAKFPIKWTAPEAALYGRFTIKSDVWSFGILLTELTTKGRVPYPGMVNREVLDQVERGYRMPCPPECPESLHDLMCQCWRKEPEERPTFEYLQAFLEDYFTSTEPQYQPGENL
When answering, recall that pIC50 equals minus log10 of the concentration in mol/L, and write that number alone.

Some entries whose results are on file:
CCn1cnc2c(Nc3ccc(P(=O)(O)CP(=O)(O)O)cc3)nc(CCCCN)nc21
5.68
CCn1cnc2c(Nc3ccc(P(=O)(O)CP(=O)(O)O)cc3)nc(C[C@H]3CC[C@H](N)CC3)nc21
6.69
CCn1cnc2c(Nc3ccc(P(=O)(O)CP(=O)(O)O)cc3)nc(C[C@H]3CC[C@@H](N)CC3)nc21
7.00

Request: Recorded pIC50 for `CCn1cnc2c(Nc3ccccc3)nc([C@H]3CC[C@H](N)CC3)nc21` with Proto-oncogene tyrosine-protein kinase Src (Mus musculus, UniProt P05480), please?
Result: 7.14
